Molecular target: Human alpha-thrombin (Factor IIa) (Homo sapiens, UniProt P00734;P00734 328-363;364-622)
Assay: bead fluorescence binding
Each record here notes measured pKd.
pKd here is simply -log10 of the concentration when that concentration is written in mol/L.

Example entries and their recorded answers appear below.
binder="SAM16-16 (SAM16 with gap = 0) (mixed) DNA 1: ACGTGAGAAGTCCGTGGTAGGGCAGGTTGGGGTGACTTACGACGA DNA 2: TCTCACGTTCGTCGTA" measured_value=5.70
binder="SAM16 with gap = 3 (mixed) DNA 1: ACGTGAGAAGTCCGTGGTAGGGCAGGTTGGGGTGACTTACGACGA DNA 2: TCTCACGTTTTTCGTCGTA" measured_value=7.94

Now examine the next entry.
Which pKd value is on record for SAM24-24 (mixed) DNA 1: ACGTGAGAGCAGAGTCCGTGGTAGGGCAGGTTGGGGTGACTGACATACGACGA DNA 2: CTGCTCTCACGTTCGTCGTATGTC ? 7.51
